# measurement.notes: protein stability index of a GFP-peptide fusion (GPS, HEK-293T) (PSI 1-6); higher = more stable;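 note: 24-mer peptide tiles fused after GFP, lentivirally expressed, FACS-sorted into six equal bins by GFP/DsRed ratio, decoded by Illumina sequencing, PSI is the read-weighted mean bin number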
# condition.info: treatment: MLN4924 1 uM, 8 h; c terminus: a fixed tail appended
readout: protein stability index
Lab note: record the figure alone, no unit after it.

Query :: Fill in reported protein stability index for this entry: LWTTSRVLKVLSVCSSNKPAIVEA [CTNNB1]
Result :: 2.08

Query :: Fill in reported protein stability index for this entry: AVQDHGQPPLSATVTLTVAVADSI [PCDHGA10]
Result :: 2.98

Query :: Fill in reported protein stability index for this entry: CQALPYGPGYWMCCHRSQKGFPGC [FBXO34]
Result :: 2.23

Query :: Fill in reported protein stability index for this entry: QTGDPTSPIKLSPTSPVYRGSSSG [MTUS2]
Result :: 4.82

Query :: Fill in reported protein stability index for this entry: SMQAVLDYLYTKQLSPNLDLDPLE [RHOBTB1]
Result :: 2.19

Query :: Fill in reported protein stability index for this entry: HKVLELTAENERLQKKVEQLSREL [CEBPB]
Result :: 5.81

Query :: Fill in reported protein stability index for this entry: TYNLTEVDKYVNSFVLKNFPALLS [KLHL13]
Result :: 2.28

Query :: Fill in reported protein stability index for this entry: MASLLEDLSHIEGLSQAPQPLADE [SERTAD1]
Result :: 4.72

Query :: Fill in reported protein stability index for this entry: LRQKGNRNTHKDLLRFAQVFSQMI [FEM1B]
Result :: 2.26

Query :: Fill in reported protein stability index for this entry: GFDTDGLSSAVWPGGETEALTRLE [CRY1]
Result :: 4.76

Query :: Fill in reported protein stability index for this entry: EYQCQNLYQLEGNNQITCRNGQWS [CFHR2]
Result :: 3.03

Query :: Fill in reported protein stability index for this entry: KARVLRSKSLCHDEIENLLDSDHR [CDC25B]
Result :: 4.62

Query :: Fill in reported protein stability index for this entry: SDVDQLYLIIRTLGKLIPRHQSIF [CDKL4]
Result :: 2.67

Query :: Fill in reported protein stability index for this entry: DQDEGEWGLDQEQVFSLGDGVSGG [ZBED1]
Result :: 5.42
